target: Histone deacetylase (Plasmodium falciparum, UniProt Q9XYC7); experiment: Inhibition of Plasmodium falciparum HDAC1 expressed in Drosophila melanogaster S2 cells
Sequence (Q9XYC7 whole entry): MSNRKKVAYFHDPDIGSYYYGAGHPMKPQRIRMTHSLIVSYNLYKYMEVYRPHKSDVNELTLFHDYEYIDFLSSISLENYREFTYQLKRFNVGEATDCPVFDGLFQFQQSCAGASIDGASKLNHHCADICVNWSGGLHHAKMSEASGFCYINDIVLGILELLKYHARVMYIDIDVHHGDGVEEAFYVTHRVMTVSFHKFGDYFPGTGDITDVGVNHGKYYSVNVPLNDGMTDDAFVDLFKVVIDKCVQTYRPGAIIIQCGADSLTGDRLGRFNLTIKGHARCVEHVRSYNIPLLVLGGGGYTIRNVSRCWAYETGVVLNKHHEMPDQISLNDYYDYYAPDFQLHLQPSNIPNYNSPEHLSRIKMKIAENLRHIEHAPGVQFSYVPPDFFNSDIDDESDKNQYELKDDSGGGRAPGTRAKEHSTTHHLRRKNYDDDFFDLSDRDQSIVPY
API: label(entry) gives condition met if the entry's IC50 is strictly smaller than 40 nM; on equality or larger values it gives condition not met.

O=C(CCCCCC(=O)NN/C=C/c1cccc(O)c1)NO : condition not met
O=C(CCCCCCC(=O)NN/C=C/c1cc(O)ccc1O)NO : condition not met
COc1ccc(Br)c(/C=C/NNC(=O)CCCCCC(=O)NO)c1 : condition met
O=C(CCCCCC(=O)NN/C=C/c1ccccc1Br)NO : condition met
O=C(CCCCCC(=O)NN/C=C/c1cc(O)ccc1Br)NO : condition not met

Query block: Strictly below 40 nM in IC50? O=C(CCCCC(=O)NN/C=C/c1cc(O)ccc1Br)NO
Result block: condition not met

Query block: Strictly below 40 nM in IC50? O=C(CCCCCC(=O)NN/C=C/c1ccc(-n2ccnc2)cc1)NO
Result block: condition met

Query block: Strictly below 40 nM in IC50? COc1cc(/C=C/NNC(=O)CCCCC(=O)NO)c(Br)cc1O
Result block: condition not met

Query block: Strictly below 40 nM in IC50? O=C(CCCCCC(=O)NN/C=C/c1ccccc1Cl)NO
Result block: condition not met

Query block: Strictly below 40 nM in IC50? CC(/C=C/C(=O)NO)=C\[C@@H](C)C(=O)c1ccc(N(C)C)cc1
Result block: condition met

Query block: Strictly below 40 nM in IC50? COc1cc(/C=C/NNC(=O)CCCCCC(=O)NO)c(Br)cc1O
Result block: condition not met

Query block: Strictly below 40 nM in IC50? O=C1CCc2c(ccc3ccccc23)O1
Result block: condition not met

Query block: Strictly below 40 nM in IC50? CN(C)c1ccc(/C=C/NNC(=O)CCCCCC(=O)NO)c(O)c1
Result block: condition met

Query block: Strictly below 40 nM in IC50? O=C(CCCCCC(=O)NN/C=C/c1cccnc1Br)NO
Result block: condition met

Query block: Strictly below 40 nM in IC50? O=C(CCCCCCC(=O)NN/C=C/c1c(O)cc(O)cc1O)NO
Result block: condition not met

Query block: Strictly below 40 nM in IC50? O=C(CCCCCC(=O)NN/C=C/c1cc2c(cc1Br)OCO2)NO
Result block: condition met

Query block: Strictly below 40 nM in IC50? O=C(CCCCC(=O)NN/C=C/c1ccc(O)cc1Br)NO
Result block: condition not met
